The measured values listed here are drawn from the supplement of paper PMC9170038.

System: MS2 coat protein
Test: apparent KD of MS2 coat protein; designed switch direction (-1 OFF switch, 1 ON switch): 1; higher = weaker reporter binding
Conditions: input ligand: microRNA oligo, concentration not stated
Lab note: compare apparent KD of MS2 coat protein against 40 nM. Equal or greater, write class 1. Smaller, write class 0.

Request: Evaluate GUAGCAUACCGAGGAUAUUCAUAUUAAACAUGAGGAUCACCCAUGUAUUAGGCCAAAAGGCCUUGGGAGAAGGCGGAAUGCUAC [Xeonanis - 20 Mod5] (Eterna round: R96, puzzle: Same State NG 2) : apparent KD of MS2 coat protein at minimum 40 nM?
Response: class 0

Request: apparent KD of MS2 coat protein >= 40 nM for AUGGUGCAGGUACAGGAUAUGUUGCUCGUAACAUGAGGAUCACCCAUGUACCUAUGAGAUUAAAUGCAGAAGGGUGCACACCAAA [Mat - Same State 2 - Mod of UCT - D90] (Eterna round: R96, puzzle: Same State 2) ?
Response: class 1

Request: Say whether UUGCCGCGGGUAGGAUAUGGUCACACUUCUAAAACAUGAGGAUCACCCAUGUCCGACACAUAAAGCCAGAAGGACCCGCGGCUC [Erisriin] (Eterna round: R96, puzzle: Same State NG 2) shows apparent KD of MS2 coat protein of 40 nM or more.
Response: class 1

Request: Form field: apparent KD of MS2 coat protein at least 40 nM? Entry: GCGGACCUCACAUGAGGAUCACCCAUGUUGCGGAGACGCAAUGAGGAUAUCGAUGGGUUUCCCGUCGAGAAGGCAUAAAUCCGC [JL SSNG3 3.93 mod 4] (Eterna round: R96, puzzle: Same State NG 3)
Response: class 1

Request: Identify whether the reported apparent KD of MS2 coat protein of the following sequence is 40 nM or greater: GCUCGCACGAUGACCCACAUGAGGAUCACCCAUGUGCGUGGGCAGGAUAUCUAGAUUAAGGAUGUAGAGAAGGGUUGAGCGAGC [SameState NG3 #25] (Eterna round: R96, puzzle: Same State NG 3)
Response: class 1

Request: Confirm if apparent KD of MS2 coat protein reported for the sequence UGAAUAGUGAUAGGAUAUACAUGAGGAAUCCUCGUAGAAGGAUCAUAACAUGAGGAUCACCCAUGUAGCCGUCGAAAGACGGCA [Mat - Same State NG 1 - JL mod - D58] (Eterna round: R96, puzzle: Same State NG 1) is 40 nM or above.
Response: class 1

Request: I'd appreciate it if you could say whether GUAGCAUACCGAGGAUAUUCACAUGAGGAUCACCCAUGUAUUAAUAGGCCACAUUAGUGGCCUUGGGAGAAGGCGGAAUGCUAC [Xeonanis - 20 Mod48] (Eterna round: R96, puzzle: Same State NG 2) has apparent KD of MS2 coat protein at least equal to 40 nM.
Response: class 0

Request: Hello, I need to know if GGAAUGUGAUGUUACAUGAGGAUCACCCAUGUAGUGACAACUAAGGAUAUCUGAAAGGAAGGAGAGGAGAAGGUAGGAUCACAA [AK SSNG3-V2-16] (Eterna round: R96, puzzle: Same State NG 3) has measured apparent KD of MS2 coat protein not below 40 nM. Thanks!
Response: class 0

Request: Is apparent KD of MS2 coat protein for UAUCGUUUGAUAGGAUAUCGCUAUACAUGAGGAUCACCCAUGUUUACCACGCUGGUUUUUCAUACCGAGAAGGAUUCUGAUGAC [salish99_SSNG02_r04_006] (Eterna round: R96, puzzle: Same State NG 2) at or above 40 nM?
Response: class 0
